- Target of assay: IR (Homo sapiens (Human), UniProt P06213)
- Sequence (P06213 28-1382): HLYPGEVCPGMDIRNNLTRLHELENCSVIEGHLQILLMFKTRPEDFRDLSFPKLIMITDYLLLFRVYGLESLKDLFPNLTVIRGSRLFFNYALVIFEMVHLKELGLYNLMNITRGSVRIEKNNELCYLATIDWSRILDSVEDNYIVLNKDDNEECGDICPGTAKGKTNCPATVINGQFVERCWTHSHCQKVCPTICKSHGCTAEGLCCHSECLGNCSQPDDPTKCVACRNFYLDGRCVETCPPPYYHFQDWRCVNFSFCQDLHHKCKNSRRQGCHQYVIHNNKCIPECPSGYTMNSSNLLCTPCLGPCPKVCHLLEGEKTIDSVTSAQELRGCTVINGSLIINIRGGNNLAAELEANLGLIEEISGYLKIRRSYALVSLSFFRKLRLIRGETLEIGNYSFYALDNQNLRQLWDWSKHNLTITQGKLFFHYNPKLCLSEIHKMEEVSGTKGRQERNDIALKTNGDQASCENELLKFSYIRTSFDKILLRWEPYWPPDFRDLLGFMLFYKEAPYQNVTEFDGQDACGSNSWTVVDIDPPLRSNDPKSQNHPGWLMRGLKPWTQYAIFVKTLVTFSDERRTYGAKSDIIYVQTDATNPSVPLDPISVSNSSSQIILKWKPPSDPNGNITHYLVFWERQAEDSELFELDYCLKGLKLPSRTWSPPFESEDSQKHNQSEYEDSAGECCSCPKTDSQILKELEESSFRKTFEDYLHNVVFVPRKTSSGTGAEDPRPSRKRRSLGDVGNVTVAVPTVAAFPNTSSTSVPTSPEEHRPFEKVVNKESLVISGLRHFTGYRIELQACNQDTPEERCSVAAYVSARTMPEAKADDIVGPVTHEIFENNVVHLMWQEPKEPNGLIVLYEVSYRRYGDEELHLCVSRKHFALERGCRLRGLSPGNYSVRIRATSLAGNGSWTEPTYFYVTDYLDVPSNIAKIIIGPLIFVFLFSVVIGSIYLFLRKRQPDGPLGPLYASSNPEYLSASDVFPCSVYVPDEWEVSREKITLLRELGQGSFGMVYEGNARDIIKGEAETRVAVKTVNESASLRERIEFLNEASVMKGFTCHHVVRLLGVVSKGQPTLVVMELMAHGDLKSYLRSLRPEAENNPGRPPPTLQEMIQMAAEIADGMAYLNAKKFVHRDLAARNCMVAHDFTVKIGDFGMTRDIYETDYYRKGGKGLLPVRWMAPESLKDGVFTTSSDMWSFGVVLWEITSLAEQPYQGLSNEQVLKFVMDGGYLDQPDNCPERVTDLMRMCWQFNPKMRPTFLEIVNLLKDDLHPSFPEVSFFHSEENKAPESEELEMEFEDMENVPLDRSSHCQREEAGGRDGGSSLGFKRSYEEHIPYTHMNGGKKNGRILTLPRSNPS
- Assay protocol: KinaseProfiler off-target kinase profiling
- Type: biochemical
- Test conditions: 10 μM, ATP near Km
Readout name: Avg. POC (POC)
State just the number; it will be interpreted in POC.

Worked examples follow.
Cc1c(-c2cnn(C)c2)nn(-c2ccccc2)c1NC(=O)NC1CCOc2cc(F)ccc21 (stereo not shown) [Example 12] | 92
COCc1ccc2c(c1)C(NC(=O)Nc1c(C)c(-c3cnn(C)c3)nn1-c1ccccc1)COC2 (stereo not shown) [Example 32] | 109
Cc1c(-c2cnn(C)c2)nn(-c2ccccc2)c1NC(=O)N[C@H]1CCCc2ccccc21 [Example 2] | 44

Next up:
Reading of Avg. POC for Cc1c(-c2ccc(=O)n(C)c2)nn(-c2ccccc2)c1NC(=O)NC1CN(CC(F)(F)F)Cc2ccccc21 (stereo not shown) [Example 26] with IR (Homo sapiens (Human), UniProt P06213): 82.5
